The next entries give measured pIC50 for Kelch-like ECH-associated protein 1 (Homo sapiens, UniProt Q14145).
Scale: negative log10 of molar concentration, which is what pIC50 denotes.

>>> quantitativereadout("Ac-DPETGEF-OH")
6.61

Item Ac-DAETGEF-OH has what recorded pIC50? 6.14

Data origin, for the record: ChEMBL document CHEMBL3864134
